Recorded measurements of Fibrin % cell toxicity, one per entry
- System: primary rat microglia
- assay_method_text: Cell toxicity (dead cells, size <150 μm2) in coated fibrin (cFib) assay;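 also: share of dead cells sized under 150 µm2 at 10 µM in fibrin-stimulated microglia HTS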
- experimental_context: primary microglia HTS, fibrin stimulation; decreased size (<150 μm^2) as marker of toxicity
Where a name gives a salt, the structure may show the parent alone.
Give a bare numeral; the unit % is implied.

Below, each entry is followed by its recorded Fibrin % cell toxicity result.
compound | assayed_target | units | Fibrin % cell toxicity
CCOC(=O)C1=C[C@@H](OC(CC)CC)[C@H](NC(C)=O)[C@@H](N)C1 [Oseltamivir] | primary rat microglia | % | 1
CC(=O)Oc1cccc(C)c1 [Meta-cresyl Acetate] | primary rat microglia | % | 1
COc1ccc2cc([C@H](C)CO)ccc2c1 | primary rat microglia | % | 0
N=C(N)/N=C(\N)N1CCOCC1 [Moroxydine Hydrochloride] | primary rat microglia | % | 1

Problem: Test system primary rat microglia; read-out Fibrin % cell toxicity; what value for CC(=O)OCC(=O)[C@H]1CC[C@H]2[C@@H]3CCC4=CC(=O)CC[C@]4(C)[C@H]3CC[C@]12C [Desoxycorticosterone acetate, reference compound] ?
Result: 1

Problem: Test system primary rat microglia; read-out Fibrin % cell toxicity; what value for CCOC(=O)CC(=O)N1CCSC1COc1ccccc1OC (stereo not drawn) ?
Result: 1
